B1: Protein piccolo, residues 1058 to 1114; numbered along this chain, Q9Y6V0 (parent)
chain: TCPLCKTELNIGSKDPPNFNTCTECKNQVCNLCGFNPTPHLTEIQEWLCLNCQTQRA

Variants of: B1
Test: abundance fitness (aPCA) (normalised: wild type 0, dead -1); higher = more abundant; growth selection in yeast, the domain comes from the species named
Details: Homo sapiens
# binning rule on abundance fitness: low-valued = under -0.2, mid-valued = from -0.2 up to -0.05, high-valued = -0.05 and over

Consider the following illustrative entries.
• TCPLCKTELNIGSKDPPNFNTCTECKNQVCNLCGFNPTPHLTEIQEWLCYNCQTQRA [L50Y] = low-valued
• TCPLCKTELNIGSKDPPNVNTCTECKNQVCNLCGFNPTPHLTEIQEWLCLNCQTQRA [F19V] = low-valued
• TCPLCKTELNIGSKDPPNFNTCTECKNQVCNLCGFVPTPHLTEIQEWLCLNCQTQRA [N36V] = high-valued
• TCSLCKTELNIGSKDPPNFNTCTECKNQVCNLCGFNPTPHLTEIQEWLCLNCQTQRA [P3S] = mid-valued
• TCPLCKTELNIGSKDPPNFNTCTECKNQVCNLCGFNPTPHLTEIIEWLCLNCQTQRA [Q45I] = high-valued

Into which bin does this variant go? TCPLCKTELNIGSKDPPSFNTCTECKNQVCNLCGFNPTPHLTEIQEWLCLNCQTQRA [N18S]
mid-valued

In plain terms, what class is TCPLCKTELNIGSKDPPNFNTCTECKNQVCNLCRFNPTPHLTEIQEWLCLNCQTQRA [G34R] ?
mid-valued

Form field 'band' for TCPLCKTELNMGSKDPPNFNTCTECKNQVCNLCGFNPTPHLTEIQEWLCLNCQTQRA [I11M]
high-valued

Class? Entry: TCPLCKTELNIGSKDPPNFNTCTECKNQVCNLCGFNPTPHLTEIQEWLCVNCQTQRA [L50V]
high-valued

Category of TCPLCKTELNLGSKDPPNFNTCTECKNQVCNLCGFNPTPHLTEIQEWLCLNCQTQRA [I11L] , please.
low-valued
